List of Ki values.
target: human D1 receptors (Homo sapiens, UniProt P21728)
Construct: expressed in transfected cells; host or cells: Ltk- cells (mouse fibroblasts); membrane preparation
Sequence (P21728 whole entry): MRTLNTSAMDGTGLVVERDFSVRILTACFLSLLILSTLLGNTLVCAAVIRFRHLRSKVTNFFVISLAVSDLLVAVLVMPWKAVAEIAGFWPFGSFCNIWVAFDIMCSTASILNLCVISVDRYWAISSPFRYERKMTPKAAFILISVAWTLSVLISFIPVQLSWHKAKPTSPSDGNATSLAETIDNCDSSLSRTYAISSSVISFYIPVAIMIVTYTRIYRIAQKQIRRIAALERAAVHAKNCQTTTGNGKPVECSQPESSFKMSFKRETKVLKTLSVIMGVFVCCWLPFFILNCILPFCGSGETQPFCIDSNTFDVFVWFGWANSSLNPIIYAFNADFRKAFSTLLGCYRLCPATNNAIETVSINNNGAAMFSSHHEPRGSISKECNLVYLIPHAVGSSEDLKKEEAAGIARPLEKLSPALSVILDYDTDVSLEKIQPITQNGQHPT
assay_notes: Radioligand binding competition assay at D1 receptor
recorded_conditions: class by Ki (D1) and selectivity (Ki D2 / Ki D1); human D1 and D2 (long variant) receptors, Ltk- cell membranes; read-out: D1 binding and D2:D1 Selectivity
Description: Affinity values (Ki) of compounds at human D1 and D2 receptors were ascertained using radioligand binding competition assays. Ltk-cells expressing D1 and D2 (long variant) receptors were lysed in hypotonic buffer for membrane preparation. […] Bound radioactivity on the dried filters was quantified by liquid scintillation counting. Selectivity is determined by dividing Ki for D2 receptor by Ki for D1 receptor.

// below: answered compounds
| compound | target | result |
| --- | --- | --- |
| CS(=O)(=O)Nc1ccc2c(c1)CC[C@@H]1NCCc3cc(Cl)c(O)cc3[C@@H]21 [30a] | human D1 receptors (Homo sapiens, UniProt P21728) | < 10 nM |
| CC(=O)N(CC1CCCC1)c1ccc2c(c1)CC[C@H]1[C@H]2c2cc(O)c(Cl)cc2CCN1C | human D1 receptors (Homo sapiens, UniProt P21728) | 10 to 50 nM |
| CN1CCc2cc(Cl)c(O)cc2C2c3cccc(C(=O)N4CCN(c5ccccn5)CC4)c3CCC21 (stereo not shown) | human D1 receptors (Homo sapiens, UniProt P21728) | < 10 nM |

Return reported Ki; argument: Oc1cc2c(cc1Cl)CCN[C@H]1CCc3c(-c4ccncc4)cccc3[C@H]21 [29c]
< 5 nM

Entry CN1CCc2cc(Cl)c(O)cc2C2c3cccc(C(=O)NCCc4ccccn4)c3CCC21 (stereo not shown) : reported Ki = ?
< 10 nM

Returns the measured Ki for the input compound. Input: CN1CCc2cc(Cl)c(O)cc2[C@H]2c3cccc(C#N)c3CC[C@@H]21 [27a]
< 10 nM

What Ki value was documented for this compound, CCNC(=O)N(Cc1ccc(F)cc1)Cc1cccc2c1CC[C@H]1[C@H]2c2cc(O)c(Cl)cc2CCN1C ?
10 to 50 nM
